SYSTEM_NAME: T1, human PCSK9 (proprotein convertase subtilisin kexin type 9) (human, UniProt Q8NBP7 31-692)
T1 construct: immobilized directly (ProteOn), biotinylated (Octet) or in solution, according to the assay; also called hPCSK9; PCSK9-AF647 (labelled form)
TEST_SUMMARY: PCSK9:EGFA FRET, competitor EGFA peptide
pEC50: −log10 of the molar value.
QUANTITY_KIND: pEC50

BINDER: 2382D09 (designed binder) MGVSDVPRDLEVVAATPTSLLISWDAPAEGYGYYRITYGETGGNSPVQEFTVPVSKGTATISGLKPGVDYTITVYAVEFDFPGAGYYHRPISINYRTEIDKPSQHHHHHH
pEC50: 8.59

I: 2381G09 (designed binder) MGVSDVPRDLEVVAATPTSLLISWDAPAGDGYGYYRITYGETGGNSPVQEFTVPVSKGTATISGLKPGVDYTITVYAVEFTFPGAGYYHRPISINYRTEIDKPSQHHHHHH
II: 2381B10 (designed binder) MGVSDVPRDLEVVAATPTSLLISWDAPAGGGYGYYRITYGETGGNSPVQEFTVPVSKGTATISGLKPGVDYTITVYAVEYNFIGAGYYHRPISINYRTEIDKPSQHHHHHH
Please choose the item with the lower pEC50 value from this pair: I and II In your reply, give the label of the chosen option.
II

1: 2382G03 (designed binder) MGVSDVPRDLEVVAATPTSLLISWDAPAEAEAYGYYRITYGETGGNSPVQEFTVPVSKGTATISGLKPGVDYTITVYAVEYVFPGAGYYHRPISINYRTEIDKPSQHHHHHH
2: 2381C08 (designed binder) MGVSDVPRDLEVVAATPTSLLISWDAPADGAYGYYRITYGETGGNSPVQEFTVPVSKGTATISGLKPGVDYTITVYAVEFPYPFAGYYHRPISINYRTEIDKPSQHHHHHH
For this pair, 1 and 2 , which shows a numerically higher pEC50? Lab note: record the label of whichever item you select.
2
(2: 9.15, 1: 8.57)

A: 2381B08 (designed binder) MGVSDVPRDLEVVAATPTSLLISWDAPADGGYGYYRITYGETGGNSPVQEFTVPSSKGTATISGLKPGVDYTITVYAVEYTFPGAGYYHRPISINYRTEIDKPSQHHHHHH
B: 2013E01 (designed binder, unmodified (not PEGylated) Adnectin; also called ATI001081) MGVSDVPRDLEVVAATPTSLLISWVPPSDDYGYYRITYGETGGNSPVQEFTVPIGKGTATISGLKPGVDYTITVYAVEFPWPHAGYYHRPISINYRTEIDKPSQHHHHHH
Given the two records A and B , choose the one whose pEC50 value is lower. API: response body contains the label of the selected item.
A
(A: 8.59, B: 8.80)
